Reported residual activity by item:
# target_of_assay: Casein kinase II subunit alpha' (Homo sapiens)
# condition_info: at 10 µM
Entry format: amount then unit.

O=C1NC(=O)c2c1c1c3ccccc3[nH]c1n1cncc21
21%

Measured residual activity of `Oc1cccc(-c2nc(N3CCOCC3)c3oc4ncccc4c3n2)c1` : 79%

Entry under test: `O=C1Cc2c([nH]c3ccc(Br)cc23)-c2ccccc2N1` . Its residual activity was 92%

Value of measured residual activity for the entry `COc1cc2ncnc(Nc3cccc(Cl)c3)c2cc1OC` : 102%

----------
# target_of_assay: BDNF/NT-3 growth factors receptor (Homo sapiens) (UniProt Q16620)
# Sequence (Q16620 32-822 limits assumed): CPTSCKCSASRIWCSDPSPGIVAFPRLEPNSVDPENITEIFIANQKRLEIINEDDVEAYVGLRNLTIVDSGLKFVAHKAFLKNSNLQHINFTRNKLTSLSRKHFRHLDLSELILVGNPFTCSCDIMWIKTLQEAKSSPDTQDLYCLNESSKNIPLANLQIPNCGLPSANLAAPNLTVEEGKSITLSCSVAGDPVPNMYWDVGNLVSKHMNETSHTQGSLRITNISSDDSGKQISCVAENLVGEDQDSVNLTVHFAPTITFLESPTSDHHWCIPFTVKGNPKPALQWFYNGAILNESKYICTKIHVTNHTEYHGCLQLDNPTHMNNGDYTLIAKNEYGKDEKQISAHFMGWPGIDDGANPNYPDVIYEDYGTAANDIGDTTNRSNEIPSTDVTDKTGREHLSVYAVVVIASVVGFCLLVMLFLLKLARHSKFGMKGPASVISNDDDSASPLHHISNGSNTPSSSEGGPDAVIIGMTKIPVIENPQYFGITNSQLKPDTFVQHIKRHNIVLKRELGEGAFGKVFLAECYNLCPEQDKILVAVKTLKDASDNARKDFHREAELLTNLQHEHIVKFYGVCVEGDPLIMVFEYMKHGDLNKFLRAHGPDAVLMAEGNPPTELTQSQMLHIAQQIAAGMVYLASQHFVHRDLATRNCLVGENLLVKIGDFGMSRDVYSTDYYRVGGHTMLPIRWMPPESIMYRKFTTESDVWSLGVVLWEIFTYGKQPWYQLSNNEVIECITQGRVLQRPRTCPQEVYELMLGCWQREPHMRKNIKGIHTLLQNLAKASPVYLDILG
# condition_info: at 10 µM
property: residual activity (%)
Report the figure in % without appending any unit label.

In the examples that follow, each entry is paired with its recorded residual activity.
CC(C)(C)n1nc(Cc2cccc3ccccc23)c2c(N)ncnc21
24
CCN(CC)CCNC(=O)c1c(C)[nH]c(/C=C2\C(=O)Nc3ccc(Cl)cc32)c1C
-12
CCCCc1c(-c2ccc(OC)cc2)[nH]c2nccnc12
76
CN(C)S(=O)(=O)c1ccc2c(c1)/C(=C/c1cc3c([nH]1)CCCC3)C(=O)N2
1
O=c1cc(N2CCOCC2)oc2c1ccc1ccccc12
102

Entry `O=C1NC(=O)C(c2cn(CCCn3ccnc3)c3ccccc23)=C1Nc1ccccc1` ; assay system BDNF/NT-3 growth factors receptor (Homo sapiens) (UniProt Q16620); residual activity recorded at 18

Record `COc1ccc(CNC(=O)Nc2ncc([N+](=O)[O-])s2)cc1` has BDNF/NT-3 growth factors receptor (Homo sapiens) (UniProt Q16620) residual activity equal to 110

`NC(=O)c1ccc(-c2nc(-c3ccc4c(c3)OCCO4)c(-c3ccccn3)[nH]2)cc1` tested on BDNF/NT-3 growth factors receptor (Homo sapiens) (UniProt Q16620) gave residual activity: 68

Measured residual activity for this entry `O=C1C(Cl)=C(N2C(=O)CCC2=O)C(=O)c2ccccc21` on BDNF/NT-3 growth factors receptor (Homo sapiens) (UniProt Q16620): 93

Record for `COc1ccc2c(c1)c(C1=C(c3c[nH]c4ccccc34)C(=O)NC1=O)cn2CCCN(C)C` under target or system BDNF/NT-3 growth factors receptor (Homo sapiens) (UniProt Q16620): residual activity reported as 43
